System: MDA-MB-435 melanoma
Assay: NCI-60 one-dose screen, 48 h (100 = growth as untreated, 0 = no growth, -100 = all killed)
Conditions: 10 µM unless noted
Compounds without any hit were thinned out: in the full panel of roughly 83,000, 20% have a hit.
Can you tell me growth for the items I'm about to list?
Give bare numbers, in %.

Worked cases, answers included:
MOLECULE	UNIT SYMBOL	VALUE MEASURED
Nc1ncnc2c1CN(Cc1ccccc1)CC2	%	107
COc1ccc(NS(=O)(=O)N2CCCCC2)cc1	%	116
CSc1nc2nc3c(c(-c4ccc(C)cc4)c2c(=O)[nH]1)CN(C)C/C3=C\c1ccc(C)cc1	%	91.8
CCN(CC)CCSc1ncnc2c1cnn2-c1ccc(S(N)(=O)=O)cc1	%	76.2
N#Cc1c(-c2ccccc2)cc(-c2ccccc2)n(CC(=O)O)c1=O	%	-10.6

We now examine a further molecule.
Input: Please look at CC12CCC3C(=CCc4cc(O)ccc43)C1CCC2=O (stereo unspecified) and tell me its recorded growth on MDA-MB-435 melanoma.
Output: 73

---

System: HCC-2998 colon
Experiment: NCI-60 one-dose screen, 48 h
Details: 10 µM unless noted
The panel holds about 83,000 compounds, 20% with a hit somewhere; the sample as a whole holds those more often. The source made the active and inactive calls. How the source made its calls: active means growth percent below 10; inactive means the rest.
Tick one outcome: active, inactive

COMPOUND	CLASS NAME
CC(C)N(Cc1ccccc1)c1c(Cl)ssc1=O	inactive
Cn1cnc([N+](=O)[O-])c1Sc1nc(N)nc2nc[nH]c12	inactive

Input: Check the results log: what was the call for C/C(=C\CCc1ccoc1)CC/C=C(\C)CCCN1CCSCC1 ?
Output: inactive

---

System: NCI-H460 lung
Test: NCI-60 one-dose screen, 48 h
Conditions: 10 µM unless noted
Compounds without any hit were thinned out: in the full panel of roughly 83,000, 20% have a hit. The source made the active and inactive calls. How the source made its calls: active means growth percent below 10; inactive means the rest.
Tick one outcome: active, inactive

Example entries begin here.
COMPOUND	TARGET OR TEST SYSTEM	CLASS NAME
CC1=C([Se]CC(OC(=O)[C@@H](CSSC(C)(C)C)NC(=O)C(C)(C)C)C(=O)NCCCCCC(=O)OCc2ccccc2)C(=O)c2ccccc2C1=O (stereo partly specified)	NCI-H460 lung	active
Oc1c(N=Nc2nn[nH]n2)ccc2ccccc12	NCI-H460 lung	inactive
COc1cnc2c(c1)C(=O)c1c-2n(CCCN2CCOCC2)c(=O)c2cc(F)ccc12	NCI-H460 lung	active
O=C1Nc2ccc(C(=O)O)c(O)c2C1=O	NCI-H460 lung	inactive
COc1ccc2c(c1)[n+](=O)c(/C=C/C(=O)c1cc(OC)c(OC)c(OC)c1)c(C)n2[O-]	NCI-H460 lung	inactive
CCC(=O)Nc1cc2c(cc1Cl)-c1ccccc1C2	NCI-H460 lung	inactive
NS(=O)(=O)c1ccc(N2CC(c3nc4ccccc4[nH]3)CC2=O)cc1 (stereo unspecified)	NCI-H460 lung	inactive
O=C(Nc1ccc(Cl)cc1)Nc1ccccc1CNc1nc(Nc2ccc(OCCN3CCCC3)cc2)ncc1Cl	NCI-H460 lung	active
COC(=O)c1cc2c(/C=C3/NC(=S)NC3=O)coc2n1C	NCI-H460 lung	inactive
O=C(O)C1C(c2ccccc2)c2ccccc2C(O)C1CO (stereo unspecified)	NCI-H460 lung	inactive

Input: Check the results log: what was the call for CCSc1nc(Nc2ccc(S(=O)(=O)Nc3ccon3)cc2)c(C#N)c(-c2cccc(Br)c2)n1 ?
Output: inactive

Input: Check the results log: what was the call for CN(C)c1ccc(-c2nc3ncc(Br)cc3o2)cc1 ?
Output: inactive

Input: Check the results log: what was the call for N=C1c2nc3n(c2C(=O)c2nc4n(c21)CCCCC4)CCCCC3 ?
Output: inactive

---

Tested on: NCI-H522 lung
Assay: NCI-60 one-dose screen, 48 h (100 = growth as untreated, 0 = no growth, -100 = all killed)
Settings: 10 µM
The panel holds about 83,000 compounds, 20% with a hit somewhere; the sample as a whole holds those more often. Calls of active or inactive are those of the source. The calls were made as follows: active = growth percent below 10; inactive = the rest.
Can you tell me growth for the items I'm about to list?

MOLECULE	TARGET OR TEST SYSTEM	METRIC	VALUE MEASURED
CC(=O)Nc1cc(C(c2ccccc2)c2ccccc2)cc(C(c2ccccc2)c2ccccc2)c1C	NCI-H522 lung	growth	45.6% (inactive)
Cc1c2oc3c(C)ccc(C(=O)OC(C)C4NC(=O)C(C(C)C)N(C)C(=O)CN(C)C(=O)C5CCCN5C(=O)C(C(C)C)NC4=O)c3nc-2c(C(=O)OC(C)C2NC(=O)C(C(C)C)N(C)C(=O)CN(C)C(=O)C3CCCN3C(=O)C(C(C)C)NC2=O)c(N)c1=O (centres undefined)	NCI-H522 lung	growth	-60.1% (active)
CC12CCC3C(=CCc4cc(O)ccc43)C1CCC2=O (centres undefined)	NCI-H522 lung	growth	97% (inactive)

We now examine a further molecule.
Input: Please look at O=C(O)C1CCN(S(=O)(=O)c2ccc(-c3ccccc3)cc2)CC1 and tell me its recorded growth on NCI-H522 lung.
Output: 92.9% (inactive)

---

Can you tell me growth for the items I'm about to list?
System: HCT-15 colon
Test: NCI-60 one-dose screen, 48 h (100 = growth as untreated, 0 = no growth, -100 = all killed)
Details: 10 µM unless noted
Procedure: Growth inhibition of the HCT-15 human tumor cell line is measured as a screen for anti-cancer activity. Cells are grown in 96 well plates and exposed to the test compound for 48 hours. Compounds are tested at a single concentration, which is 10^-5 M for most compounds. The reported endpoint is percent growth (GI% or GIPRCNT), where numbers from 0 - 100% represent growth inhibition, and numbers from -100% - 0 represent cell death. For example, a value of 40 represents 60% growth inhibition. […]
About 83,000 compounds went through this panel and 20% of them were active in at least one assay; those are over-represented in the sample as a whole. Calls of active or inactive are those of the source. Rule for the calls: active = growth percent below 10; inactive = the rest.

Worked cases, answers included:
COMPOUND	VALUE MEASURED
CN1CCN(c2nc3scc(-c4ccccc4)c3c(=O)[nH]2)CC1	104% (inactive)
CC(=O)c1ccccc1NC(=O)C(C)(c1ccccc1)c1ccccc1	104% (inactive)

Please go through the list and note growth for each compound.
1. O=C1/C(=C/c2cccc(Cl)c2)CCc2ccccc21
2. COC(=O)[C@H](CCCCNC(=O)OCc1ccccc1)NC(=O)[C@@H](NC(=O)Nc1cc(C(F)(F)F)cc(C(F)(F)F)c1)C(C)C

Output:
["93.7% (inactive)", "13.4% [100 µM] (inactive)"]

---

System: HCC-2998 colon
Assay: NCI-60 one-dose screen, 48 h
Settings: 10 µM unless noted
This is part of a sample that, as a whole, favours compounds with a hit. Of some 83,000 tested, about 20% had one in any assay. The source made the active and inactive calls. How the source made its calls: active means growth percent below 10; inactive means the rest.
Tick one outcome: true for active, false for inactive

MOLECULE	CLASS NAME
O=C(N/N=C/c1cccc([N+](=O)[O-])c1)c1ccc(Br)o1	false

Input: Check the results log: what was the call for COc1ccc(NC(=O)c2ccccc2-c2ccccc2)c(C(N)=O)c1 ?
Output: false

Input: Check the results log: what was the call for O=C(/C=C/c1cccc(Nc2ccnc3cc(Cl)ccc23)c1)c1ccc(Cl)cc1 ?
Output: false

Input: Check the results log: what was the call for Cn1c(N2N=C(c3ccc(Cl)cc3)CC2c2ccccc2)nc(-c2ccccc2)c(C#N)c1=O (centres undefined) ?
Output: false

Input: Check the results log: what was the call for Clc1ccc(C2=NN(c3ccc(Cl)cc3)C(c3cccc(Nc4ccnc5cc(Cl)ccc45)c3)C2)cc1 (centres undefined) ?
Output: false

Input: Check the results log: what was the call for CCOC1Oc2ccccc2C(=O)/C1=N/c1nccs1 (centres undefined) ?
Output: false

---

Tested on: SF-539 CNS
Assay: NCI-60 one-dose screen, 48 h (100 = growth as untreated, 0 = no growth, -100 = all killed)
Details: 10 µM unless noted
Protocol: Cells are grown in 96 well plates and exposed to the test compound for 48 hours. Compounds are tested at a single concentration, which is 10^-5 M for most compounds. The reported endpoint is percent growth (GI% or GIPRCNT), where numbers from 0 - 100% represent growth inhibition, and numbers from -100% - 0 represent cell death. For example, a value of 40 represents 60% growth inhibition. A value of 0 means no net growth occurred over the course of the experiment. […]
Compounds without any hit were thinned out: in the full panel of roughly 83,000, 20% have a hit.
Can you tell me growth for the items I'm about to list?
Numbers only, in %.

COMPOUND	TARGET OR TEST SYSTEM	METRIC	UNIT SYMBOL	VALUE MEASURED
C/C(=C\CCc1ccoc1)CC/C=C(\C)CCCN1CCSCC1	SF-539 CNS	growth	%	92.1
COC(=O)c1cc2c(/C=C3/NC(=S)NC3=O)coc2n1C	SF-539 CNS	growth	%	82.2
O=C(Nc1nc(-c2ccc(Cl)cc2)cs1)c1cc(-c2ccc(Br)cc2)nc2ccc(Cl)cc12	SF-539 CNS	growth	%	2.4

Please go through the list and note growth for each compound.
1. O=C(/C=C/c1ccc([N+](=O)[O-])cc1)c1ccc2c3c(cccc13)CC2
2. NS(=O)(=O)c1ccc(N2CC(c3nc4ccccc4[nH]3)CC2=O)cc1 (stereo not given)
3. O=C(c1ccc(Cl)cc1)c1ccc(Cl)cc1
4. COc1ccc2c(c1)CC/C(=C\c1ccc(OCC(=O)Nc3nc4ccccc4s3)cc1)C2=O
5. NS(=O)(=O)N(c1cc(C(F)(F)F)cc(C(F)(F)F)c1)C1CCN(Cc2ccc(C(F)(F)F)cc2)CC1

Output:
1: 33.1; 2: 96.6; 3: 107; 4: 73.7; 5: 0.806

Please go through the list and note growth for each compound.
1. COC(=O)N/N=C/c1coc2ccc(Cl)cc2c1=O
2. COCCOCCOCCOCCOc1ccc2c(c1)C(=O)c1nc3ncccc3c(=O)n1-2

Output:
1. 99.8
2. -89.6
